Tested on: blackgrass (Alopecurus myosuroides)
Assay: Test C greenhouse herbicide test, pre- and postemergence
Type: in vivo
Conditions: Preemergence, 62 g ai/ha; scale 0 to 100, 0 is no effect, 100 is complete control
Each entry below carries its recorded Plant response rating, Blackgrass.
// return a plain number; no unit text

Consider the reported Plant response rating, Blackgrass for these compounds:
>  <smiles representation>
COC(=O)Oc1c(C)nn(C)c(=O)c1-c1ccc(Br)c2ccccc12

>  <assayed target>
blackgrass (Alopecurus myosuroides)

>  <Plant response rating, Blackgrass>
30

$$$$
>  <smiles representation>
CCc1sc2c(C)cc(C)cc2c1-c1c(O)c(C)nn(C)c1=O

>  <assayed target>
blackgrass (Alopecurus myosuroides)

>  <Plant response rating, Blackgrass>
60

$$$$
>  <smiles representation>
Cc1ccc2ccccc2c1-c1c(O)c(Br)nn(C)c1=O

>  <assayed target>
blackgrass (Alopecurus myosuroides)

>  <Plant response rating, Blackgrass>
85

$$$$
>  <smiles representation>
Cc1nn(C)c(=O)c(-c2cccc3ccccc23)c1O

>  <assayed target>
blackgrass (Alopecurus myosuroides)

>  <Plant response rating, Blackgrass>
40

$$$$

# input for lookup
Item under review: Cc1nn(C)c(=O)c(-c2c(C)sc3ccc(C(F)(F)F)cc23)c1O . Reported Plant response rating, Blackgrass?
45

---

System: foxtail, giant (giant foxtail, Setaria faberii)
Test: Test C greenhouse herbicide test, pre- and postemergence
Format: in vivo
Conditions: Preemergence, 250 g ai/ha; scale 0 to 100, 0 no effect, 100 complete control
recorded endpoint: Foxtail, Giant plant response rating

Consider the reported Foxtail, Giant plant response rating for these compounds:
>  <compound>
CCc1ccc2ccccc2c1-c1c(O)c(C)nn(C)c1=O [Compound 32]

>  <assay result>
85

$$$$
>  <compound>
COC(=O)Oc1cnn(C)c(=O)c1-c1c(C)sc2ccccc12 [Compound 97]

>  <assay result>
55

$$$$
>  <compound>
Cc1sc2ccccc2c1-c1c(O)c(Cl)nn(C)c1=O [Compound 89]

>  <assay result>
75

$$$$
>  <compound>
CCc1oc2ccc(C)cc2c1-c1c(O)c(C)nn(C)c1=O [Compound 10]

>  <assay result>
0

$$$$

# input for lookup
Item under review: CCCC(=O)Oc1c(C)nn(C)c(=O)c1-c1c(C)sc2ccc(C)cc12 [Compound 105] . Reported Foxtail, Giant plant response rating?
100

---

Each entry below carries its recorded Plant response rating, Foxtail, Giant.
Tested on: foxtail, giant (giant foxtail, Setaria faberii)
Test: Test C greenhouse herbicide test, pre- and postemergence
Format: in vivo
Conditions: Preemergence, 125 g ai/ha; scale 0 to 100, 0 is no effect, 100 is complete control
// return a plain number; no unit text

Consider the reported Plant response rating, Foxtail, Giant for these compounds:
>  <smiles representation>
Cc1ccc2ccccc2c1-c1c(OC(=O)OC(C)C)c(C)nn(C)c1=O

>  <Plant response rating, Foxtail, Giant>
85

$$$$
>  <smiles representation>
Cc1cc(C)c2ccccc2c1-c1c(O)c(C)nn(C)c1=O

>  <Plant response rating, Foxtail, Giant>
100

$$$$
>  <smiles representation>
CCC(=O)Oc1c(OC)nn(C)c(=O)c1-c1c(C)sc2ccc(Cl)cc12

>  <Plant response rating, Foxtail, Giant>
90

$$$$

# input for lookup
Item under review: CC(=O)Oc1c(Cl)nn(C)c(=O)c1-c1c(C)sc2ccc(C(F)(F)F)cc12 . Reported Plant response rating, Foxtail, Giant?
65

---

Test system: barley, spring (spring barley, Hordeum vulgare)
Test: Test D controlled growth environment herbicide test, pre- and postemergence
Format: in vivo
Details: postemergence, 62 g ai/ha; scale 0 to 100, 0 no effect, 100 complete control
Each entry below carries its recorded Plant response rating, Barley, Spring.
// return a plain number; no unit text

>  <smiles representation>
Cc1ccc2ccccc2c1-c1c(O)c(Br)nn(C)c1=O

>  <Plant response rating, Barley, Spring>
15

$$$$
>  <smiles representation>
Cc1nn(C)c(=O)c(-c2ccc(F)c3ccccc23)c1O

>  <Plant response rating, Barley, Spring>
5

$$$$
>  <smiles representation>
CCCC(=O)Oc1c(C)nn(C)c(=O)c1-c1c(C)sc2ccc(C)cc12

>  <Plant response rating, Barley, Spring>
5

$$$$

# input for lookup
Item under review: Cc1nn(C)c(=O)c(-c2c(C)sc3c(C)cc(Cl)cc23)c1O . Reported Plant response rating, Barley, Spring?
0

---

Each entry below carries its recorded Plant response rating, Bromegrass, Downy.
System: bromegrass, downy (downy bromegrass, Bromus tectorum)
Assay: Test D controlled growth environment herbicide test, pre- and postemergence
Assay type: in vivo
Conditions: Preemergence, 62 g ai/ha; scale 0 to 100 (0 no effect, 100 complete control)
// return a plain number; no unit text

>  <smiles representation>
CCCC(=O)Oc1c(C)nn(C)c(=O)c1-c1c(C)sc2ccc(C)cc12

>  <recorded endpoint>
Plant response rating, Bromegrass, Downy

>  <assay result>
65

$$$$
>  <smiles representation>
Cn1nc(Br)c(O)c(-c2cccc3ccccc23)c1=O

>  <recorded endpoint>
Plant response rating, Bromegrass, Downy

>  <assay result>
35

$$$$
>  <smiles representation>
Cc1nn(C)c(=O)c(-c2ccc(F)c3ccccc23)c1O

>  <recorded endpoint>
Plant response rating, Bromegrass, Downy

>  <assay result>
55

$$$$
>  <smiles representation>
COC(=O)Oc1c(C)nn(C)c(=O)c1-c1c(C)sc2ccc(C)cc12

>  <recorded endpoint>
Plant response rating, Bromegrass, Downy

>  <assay result>
35

$$$$
>  <smiles representation>
CC(=O)Oc1c(C)nn(C)c(=O)c1-c1c(C)sc2ccc(Cl)cc12

>  <recorded endpoint>
Plant response rating, Bromegrass, Downy

>  <assay result>
25

$$$$

Item under review: Cc1nn(C)c(=O)c(-c2c(C)sc3c(C)cc(Cl)cc23)c1O . Reported Plant response rating, Bromegrass, Downy?
30

Okay, and Cc1ccc2sc(Br)c(-c3c(O)c(C)nn(C)c3=O)c2c1 ?
35

---

Test system: oilseed rape (Brassica napus)
Assay: Test C greenhouse herbicide test, pre- and postemergence
Format: in vivo
Conditions: Postemergence, 250 g ai/ha; scale 0 to 100, 0 no effect, 100 complete control; 13 to 15 d
# if measured Plant response rating, Oilseed Rape < 80: Criterion met  # else: Criterion not met

>  <smiles representation>
COC(=O)Oc1c(C)nn(C)c(=O)c1-c1ccc(F)c2ccccc12

>  <assayed target>
oilseed rape (Brassica napus)

>  <class name>
Criterion met

$$$$
>  <smiles representation>
CCc1ccc2ccccc2c1-c1c(O)c(C)nn(C)c1=O

>  <assayed target>
oilseed rape (Brassica napus)

>  <class name>
Criterion not met

$$$$
>  <smiles representation>
CC(=O)Oc1c(C)nn(C)c(=O)c1-c1c(C)sc2ccc(C(F)(F)F)cc12

>  <assayed target>
oilseed rape (Brassica napus)

>  <class name>
Criterion met

$$$$

Please indicate whether the reported Plant response rating, Oilseed Rape of Cn1nc(Br)c(O)c(-c2cccc3ccccc23)c1=O is strictly below 80.
Criterion met

---

Each entry below carries its recorded Plant response rating, Panicum, Fall.
Test system: panicum, fall (fall panicum, Panicum dichotomiflorum)
Assay: Test E greenhouse herbicide test, pre- and postemergence
Format: in vivo
Settings: 250 g ai/ha, Postemergence; scale 0 to 100 (0 no effect, 100 complete control)
// return a plain number; no unit text

>  <compound>
Cc1ccc2sc(Br)c(-c3c(O)c(C)nn(C)c3=O)c2c1 [Compound 79]

>  <recorded endpoint>
Plant response rating, Panicum, Fall

>  <assay result>
75

$$$$
>  <compound>
Cc1cc(C)c2sc(C)c(-c3c(O)c(C)nn(C)c3=O)c2c1 [Compound 2]

>  <recorded endpoint>
Plant response rating, Panicum, Fall

>  <assay result>
90

$$$$
>  <compound>
Cc1nn(C)c(=O)c(-c2cccc3ccc(Br)cc23)c1O [Compound 126]

>  <recorded endpoint>
Plant response rating, Panicum, Fall

>  <assay result>
35

$$$$

Item under review: Cc1nn(C)c(=O)c(-c2ccc(Br)c3ccccc23)c1O [Compound 75] . Reported Plant response rating, Panicum, Fall?
60

---

Test system: wheat (winter wheat, Triticum aestivum)
Experiment: Test C greenhouse herbicide test, pre- and postemergence
Format: in vivo
Settings: Preemergence, 125 g ai/ha; scale 0 to 100, 0 is no effect, 100 is complete control
recorded endpoint: Plant response rating, Wheat
// return a plain number; no unit text

Consider the reported Plant response rating, Wheat for these molecules:
>  <smiles representation>
CCC(=O)Oc1c(C)nn(C)c(=O)c1-c1ccc(Br)c2ccccc12

>  <assayed target>
wheat (winter wheat, Triticum aestivum)

>  <recorded endpoint>
Plant response rating, Wheat

>  <assay result>
15

$$$$
>  <smiles representation>
Cn1nc(Br)c(O)c(-c2cccc3ccccc23)c1=O

>  <assayed target>
wheat (winter wheat, Triticum aestivum)

>  <recorded endpoint>
Plant response rating, Wheat

>  <assay result>
35

$$$$
>  <smiles representation>
COC(=O)Oc1c(C)nn(C)c(=O)c1-c1ccc(Br)c2ccccc12

>  <assayed target>
wheat (winter wheat, Triticum aestivum)

>  <recorded endpoint>
Plant response rating, Wheat

>  <assay result>
0

$$$$

# input for lookup
Item under review: CCc1sc2ccc(C)cc2c1-c1c(O)c(C)nn(C)c1=O . Reported Plant response rating, Wheat?
0
